Target: HLA-A*0201 (HLA-A2) heavy chain refolded with β2-microglobulin
Assay: radioligand binding
Non-standard residues stand in square brackets, D forms with d. No end group written: not given here. pS = N[C@@H](COP(=O)(O)O)C(=O)O
measuredAttribute: pIC50
Give bare numbers, as −log10 of the molar value.

binder	measuredAttribute	measured
RVASPTSGV (not fully specified) [… (non-phosphorylated counterpart of RVApSPTSGV)]	pIC50	6.14
KMDSFLDMQL (not fully specified) [… (non-phosphorylated counterpart of KMDpSFLDMQL)]	pIC50	7.94
RTF[pS]PTYGL [RTFpSPTYGL]	pIC50	7.49

Continue with the next binder.
Asked: I would be grateful if you could share the reported pIC50 for YLD[pS]GIHSGA [YLDpSGIHSGA] .
Given back: 6.84
